src = patent US11203587B2

tested.system: THR beta-LBD (Homo sapiens)
Construct: THR alpha-LBD (0.4 nM final concentration) or THR beta-LBD (1.0 nM final concentration) was added; purchased ThermoFisher
Sequence (P10828 217-461 limits assumed): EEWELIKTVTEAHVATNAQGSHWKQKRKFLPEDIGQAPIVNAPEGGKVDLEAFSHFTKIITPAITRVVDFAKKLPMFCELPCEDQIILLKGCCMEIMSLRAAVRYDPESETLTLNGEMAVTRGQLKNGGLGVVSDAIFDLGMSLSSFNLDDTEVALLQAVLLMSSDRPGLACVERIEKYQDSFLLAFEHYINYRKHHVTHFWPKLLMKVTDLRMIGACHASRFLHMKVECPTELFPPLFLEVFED
experiment.notes: LanthaScreen TR-FRET Thyroid Receptor beta Coactivator Assay
Format: biochemical
details: THR beta over THR alpha; derived from T3-selectivity normalized data
observation.type: THRβ-Selectivity

INSERT INTO assay_data (molecule, tested_system, assay_result) VALUES
  ('CC(C)c1cc(Cc2c(Cl)cc(-c3nn(C)c(=O)[nH]c3=O)cc2Cl)n[nH]c1=O [Compound 16]', 'THR beta-LBD (Homo sapiens)', 28.3);

(a) CCOC(=O)Cn1nc(-c2cc(Cl)c(Oc3cc(C(C)C)c(=O)[nH]n3)c(Cl)c2)c(=O)[nH]c1=O [Compound 20]
(b) CC(C)c1cc(Oc2c(Cl)cc(-c3n[nH]c(=O)[nH]c3=O)cc2Cl)n[nH]c1=O [Compound 2]
Input line: Look at a and b . Which one has the lower recorded THRβ-Selectivity number? Bench note: the answer is the label of the chosen record.
Output line: a

====

tested.system: THR beta-LBD (Homo sapiens)
Construct: THR alpha-LBD (0.4 nM final concentration) or THR beta-LBD (1.0 nM final concentration) was added
experiment.notes: LanthaScreen TR-FRET Thyroid Receptor beta Coactivator Assay
details: TR-FRET coactivator assay, 2 hours incubation at room temperature; run in duplicate multiple times, average data; read-out: EC50 THRβ-FRET
pEC50: −log10 of the molar value.
observation.type: pEC50

Consider the reported pEC50 for these molecules:
INSERT INTO measurements (molecule, assay_result) VALUES
  ('CCC(C)c1cc(Oc2c(Cl)cc(-c3nn(C)c(=O)[nH]c3=O)cc2Cl)n[nH]c1=O (stereo not drawn)', 6.64),
  ('CC(C)c1cc(Cc2c(Cl)cc(-c3n[nH]c(=O)[nH]c3=O)cc2Cl)nn(C)c1=O', 7.46),
  ('CC[C@@H](C)c1cc(Oc2c(Cl)cc(-c3n[nH]c(=O)[nH]c3=O)cc2Cl)n[nH]c1=O (single isomer, unassigned) [Compound 33 P1]', 6.16);

(1) CCc1cc(Oc2c(Cl)cc(-c3nn(C)c(=O)[nH]c3=O)cc2Cl)n[nH]c1=O
(2) CC(O)c1cc(Oc2c(Cl)cc(-c3n[nH]c(=O)[nH]c3=O)cc2Cl)n[nH]c1=O (stereo not drawn)
(3) Cc1c(-c2n[nH]c(=O)[nH]c2=O)cc(Cl)c(Oc2cc(C(C)C)c(=O)n(C)n2)c1Cl
Input line: Sort these molecules on pEC50 so the largest reading comes first. Submit the labels in the order that the ranking request calls for.
Output line: 3, 2, 1

====

tested.system: THR alpha-LBD (Homo sapiens, UniProt P10827)
Construct: THR alpha-LBD (0.4 nM final concentration) or THR beta-LBD (1.0 nM final concentration) was added
Sequence (P10827 163-410 isoform P10827-2 limits assumed, other chains not shown): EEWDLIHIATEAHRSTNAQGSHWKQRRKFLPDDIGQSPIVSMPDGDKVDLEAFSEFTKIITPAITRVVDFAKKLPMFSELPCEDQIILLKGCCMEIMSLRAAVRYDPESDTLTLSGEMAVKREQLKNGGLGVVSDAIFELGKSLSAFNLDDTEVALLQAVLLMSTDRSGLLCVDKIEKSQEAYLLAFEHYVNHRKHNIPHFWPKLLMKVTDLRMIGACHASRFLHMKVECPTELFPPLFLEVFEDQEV
experiment.notes: LanthaScreen TR-FRET Thyroid Receptor alpha Coactivator Assay
details: 2 hours incubation at room temperature, run in duplicate multiple times, average data, read-out: EC50 THRα-FRET
observation.type: EC50 (µM)

INSERT INTO measurements (molecule, tested_system, observation_type, assay_result) VALUES
  ('CC(C)c1cc(Cc2c(Cl)cc(-c3n[nH]c(=O)[nH]c3=O)cc2Cl)n[nH]c1=O [Compound 15]', 'THR alpha-LBD (Homo sapiens, UniProt P10827)', 'EC50', 3.34),
  ('O=c1[nH]nc(-c2cc(Cl)c(Oc3cc(C4CC4)c(=O)[nH]n3)c(Cl)c2)c(=O)[nH]1 [Compound 6]', 'THR alpha-LBD (Homo sapiens, UniProt P10827)', 'EC50', 0.981),
  ('CC(C)c1cc(Oc2c(Cl)cc(-c3nn(CC#N)c(=O)[nH]c3=O)cc2Cl)n[nH]c1=O [Compound 22]', 'THR alpha-LBD (Homo sapiens, UniProt P10827)', 'EC50', 3.44),
  ('CC(O)c1cc(Oc2c(Cl)cc(-c3nn(C)c(=O)[nH]c3=O)cc2Cl)n[nH]c1=O (stereo not drawn) [Compound 31]', 'THR alpha-LBD (Homo sapiens, UniProt P10827)', 'EC50', 2.67),
  ('Cc1c(-c2n[nH]c(=O)[nH]c2=O)cc(Cl)c(Oc2cc(C(C)C)c(=O)n(C)n2)c1Cl [Compound 5]', 'THR alpha-LBD (Homo sapiens, UniProt P10827)', 'EC50', 0.0626);

(A) CC(C)c1cc(Oc2c(Cl)cc(-c3n[nH]c(=O)[nH]c3=O)c(F)c2Cl)nn(C)c1=O [Compound 25]
(B) CC(C)c1cc(Oc2c(Cl)cc(-c3nn(C)c(=O)[nH]c3=O)cc2Cl)n[nH]c1=O [Compound 3]
(C) CC(C)c1cc(C(=O)c2c(Cl)cc(-c3n[nH]c(=O)[nH]c3=O)cc2Cl)n[nH]c1=O [Compound 8]
Input line: List items by EC50 in falling order. Please respond with the labels ordered as the question requires.
Output line: C, B, A
